From: patent US20140112915A1

Molecular target: T1, Recombinant cynomolgus IL-18 (cynomolgus monkey, UniProt Q14116 37-193 (human entry))
T1 chain: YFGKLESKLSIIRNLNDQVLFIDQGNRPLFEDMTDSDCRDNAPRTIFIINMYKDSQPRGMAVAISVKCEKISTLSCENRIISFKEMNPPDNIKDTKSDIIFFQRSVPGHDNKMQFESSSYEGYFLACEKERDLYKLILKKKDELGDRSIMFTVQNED
Assay: cell-based or functional assay
property label: IC50, inhibition of IFN-γ release, KG-1 cells, Cyno IL-18
Please state the value followed by its unit.

Observe how each entry below is paired with its result.
{"binder": "MOR10501 (antibody, human IgG1, lambda, L234A L235A, V domains shown, also called MOR010501) VH: EVQLQESGPGLVKPGETLSLTCTVSGGSISTGSYYWNWIRQAPGKGLEWIGEIWHSGPTFYNPSLKSRVTISVDTSKNQFSLKLSSVTAADTAVYYCARTTRYWMSHILAYGMDYWGQGTLVTVSS VL: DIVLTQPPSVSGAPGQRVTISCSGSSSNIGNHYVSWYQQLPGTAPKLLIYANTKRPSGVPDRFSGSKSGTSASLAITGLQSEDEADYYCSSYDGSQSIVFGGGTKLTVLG", "test value": "0.2 nM"}
{"binder": "MOR9464_N30K (antibody, human IgG1, lambda, L234A L235A, V domains shown, also called MOR09464_N30K) VH: EVQLVQSGAEVKKPGSSVKVSCKASGGTFKSYAISWVRQAPGQGLEWMGNIIPMTGQTYYAQKFQGRVTITADESTSTAYMELSSLRSEDTAVYYCARAAYHPLVFDNWGQGTLVTVSS VL: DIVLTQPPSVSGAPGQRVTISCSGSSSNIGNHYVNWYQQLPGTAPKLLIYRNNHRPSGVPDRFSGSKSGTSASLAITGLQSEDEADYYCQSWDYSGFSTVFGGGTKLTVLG", "test value": "4.7 nM"}

Let's switch to this binder now.
I have this binder here, MOR10222 (antibody, human IgG1, lambda, L234A L235A, V domains shown) VH: EVQLVQSGAEVKKPGSSVKVSCKASGGTFNSYAISWVRQAPGQGLEWMGNIIPMTGQTYYAQKFQGRVTITADESTSTAYMELSSLRSEDTAVYYCARAAYHPLVFDNWGQGTLVTVSS VL: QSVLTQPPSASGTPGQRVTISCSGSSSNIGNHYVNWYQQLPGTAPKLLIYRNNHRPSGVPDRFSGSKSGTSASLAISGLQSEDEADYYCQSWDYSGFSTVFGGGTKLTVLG , and I need its recorded IC50, inhibition of IFN-γ release, KG-1 cells, Cyno IL-18. 6.6 nM
